# credit: patent US20050197331A1

Structures can show the parent of a compound that is named as a salt.
observation_type: melting point

Below: 5 molecules and their reported melting point.
{"molecule": "COc1ccccc1-c1nc2cc(NC(C)=N)ccc2s1", "observation_type": "melting point", "reported_measurement": "163 to 165 °C"}
{"molecule": "COc1ccccc1-c1nc2cc(NC(C)=N)ccc2[nH]1", "observation_type": "melting point", "reported_measurement": "190.5 to 192.8 °C"}
{"molecule": "CC(=N)Nc1ccc2[nH]c(-c3ccccc3F)nc2c1 (as salt: hydrobromid) [Compound 38, hydrobromide]", "observation_type": "melting point", "reported_measurement": "266.8 to 269 °C"}
{"molecule": "CC(=N)Nc1ccc2[nH]c(-c3ccccc3)nc2c1 (as salt: hydrochloride)", "observation_type": "melting point", "reported_measurement": "164 to 166 °C"}
{"molecule": "CC(=N)Nc1ccc2nc(-c3ccccc3)ncc2c1 (as salt: hydrochloride) [Compound 27, dihydrochloride]", "observation_type": "melting point", "reported_measurement": "162 to 168 °C"}

Task: Record request: melting point value, item CC(=N)Nc1ccc2sc(-c3ccccc3C)nc2c1
Result: 188.4 to 189.8 °C

Task: Record request: melting point value, item CC(=N)Nc1ccc2oc(-c3ccccc3F)nc2c1
Result: 157.9 to 159.2 °C

Task: Record request: melting point value, item CC(=N)Nc1ccc2[nH]c(-c3ccccc3C)nc2c1
Result: 154 to 158 °C

Task: Record request: melting point value, item COc1ccc(S(N)(=O)=O)cc1-c1nc2cc(NC(C)=N)ccc2s1 (as salt: hydrochloride)
Result: 244 to 248 °C

----------
Reported melting point values follow for various compounds
Where a name gives a salt, the structure may show the parent alone.

{"compound": "CC(=N)Nc1ccc2oc(-c3ccccc3)cc2c1", "reported_measurement": "204.8 to 205.9 °C"}
{"compound": "CCCCCc1nc2ccc(NC(C)=N)cc2s1", "reported_measurement": "112.6 to 114.7 °C"}
{"compound": "CC(=N)Nc1ccc2[nH]c(-c3ccc(Cl)cc3)nc2c1", "reported_measurement": "153.6 to 156 °C"}

Task: Record request: melting point value, item CC(=N)Nc1ccc2sc(/C=C/c3ccccc3)nc2c1 [Compound 12, N-[2-styrylbenzothiazol-5-yl]acetamidine]
Result: 90.8 to 91.8 °C

Task: Record request: melting point value, item CC(=N)Nc1ccc2[nH]c(-c3ccc(C(=O)O)cc3)nc2c1
Result: 271.5 to 274.3 °C

Task: Record request: melting point value, item CC(=N)Nc1ccc2oc(-c3ccc(C(F)(F)F)cc3)nc2c1
Result: 179.2 to 181 °C

Task: Record request: melting point value, item COC(=O)c1ccc(-c2nc3cc(NC(C)=N)ccc3[nH]2)cc1 (as salt: hydrochloride)
Result: 284 to 288 °C

Task: Record request: melting point value, item CC(=N)Nc1ccc2sc(-c3ccccn3)nc2c1
Result: 187.2 to 188.9 °C

Task: Record request: melting point value, item CC(=N)Nc1ccc2sc(-c3ccc[nH]3)nc2c1
Result: 166.7 to 169.1 °C

Task: Record request: melting point value, item CC(=N)Nc1ccc2[nH]c(-c3ccc(Cl)c(Cl)c3)nc2c1
Result: 207.4 to 209 °C

Task: Record request: melting point value, item CC(=N)Nc1ccc2oc(-c3ccc(Cl)cc3)nc2c1
Result: 183.6 to 185.1 °C

Task: Record request: melting point value, item COc1cccc(-c2nc3cc(NC(C)=N)ccc3s2)c1
Result: 141.6 to 145.6 °C

Task: Record request: melting point value, item COc1ccc(-c2nc3cc(NC(C)=N)ccc3s2)c(OC)c1
Result: 156.4 to 158.3 °C

Task: Record request: melting point value, item CC(=N)Nc1ccc2nc(-c3ccccc3)oc2c1
Result: 176.3 to 177.8 °C

Task: Record request: melting point value, item COc1ccccc1-c1nc2cc(NC(C)=N)ccc2n1C (as salt: hydrochloride) [Compound 43, dihydrochloride]
Result: 253.1 to 254.7 °C

Task: Record request: melting point value, item COc1ccccc1-c1[nH]c2ccc(NC(C)=N)cc2[n+]1C
Result: 205.6 to 207.1 °C

Task: Record request: melting point value, item CC(=N)Nc1ccc2oc(-c3ccc(Cl)c(Cl)c3)nc2c1
Result: 182 to 184 °C

----------
Tested on: rat paw injected with Zymosan
Experiment: Zymosan-induced paw oedema in rats
Format: in vivo
Details: os, 0-6 hours, dose reducing volume increase by 30%
Counter-ions that a name gives are not always drawn.
Reported Anti-inflammatory activity (oedema) ED30 values follow for various molecules
Number in mg/kg, nothing else.

{"molecule": "CC(=N)Nc1ccc2sc(-c3ccccc3)nc2c1", "unit_descriptor": "mg/kg", "Anti-inflammatory activity (oedema) ED30": 33.9}
{"molecule": "CC(=N)Nc1ccc2nc(-c3ccccc3)ncc2c1 [Compound 27, dihydrochloride]", "unit_descriptor": "mg/kg", "Anti-inflammatory activity (oedema) ED30": 24.6}

Now look at this entry.
Task: Record request: Anti-inflammatory activity (oedema) ED30 value, item CC(=N)Nc1ccc2nc(-c3ccccc3)ccc2c1
Result: 19.8

----------
Structures can show the parent of a compound that is named as a salt.
Reported melting point values follow for various molecules

Below: 6 molecules and their reported melting point.
{"molecule": "CC(=N)Nc1ccc2[nH]c(-c3ccc[nH]3)nc2c1 (as salt: hydrochloride) [Compound 23, dihydrochloride]", "melting point": "318 to 322 °C"}
{"molecule": "CC(=N)Nc1ccc2nc(-c3ccccc3)ccc2c1", "melting point": "143 to 144.4 °C"}
{"molecule": "CC(=N)Nc1ccc2[nH]c(-c3ccc(F)cc3)nc2c1 (as salt: hydrochloride) [Compound 19, dihydrochloride]", "melting point": "283.7 to 286.3 °C"}
{"molecule": "COc1ccc(-c2nc3cc(NC(C)=N)ccc3s2)cc1", "melting point": "203 to 204.7 °C"}
{"molecule": "CC(=N)Nc1ccc2sc(-c3ccccc3)nc2c1", "melting point": "177 to 178 °C"}
{"molecule": "CC(=N)Nc1ccc2nc(-c3ccc(Cl)cc3)sc2c1", "melting point": "212.2 to 213.5 °C"}

Now look at this entry.
Task: Record request: melting point value, item CC(=N)Nc1ccc2c(c1)cc(-c1ccccc1)n2C
Result: 184.6 to 185.8 °C
